Entries and their measured stabilization factor SF100, Replicate 2 (Table S2) follow.
target or test system: 14-3-3γ/ERRγ complex (Homo sapiens, UniProt P61981+P62508)
Construct: made in house; host or cells: E. coli NiCo21 (DE3)
Sequence (P61981 whole entry, other chains not shown): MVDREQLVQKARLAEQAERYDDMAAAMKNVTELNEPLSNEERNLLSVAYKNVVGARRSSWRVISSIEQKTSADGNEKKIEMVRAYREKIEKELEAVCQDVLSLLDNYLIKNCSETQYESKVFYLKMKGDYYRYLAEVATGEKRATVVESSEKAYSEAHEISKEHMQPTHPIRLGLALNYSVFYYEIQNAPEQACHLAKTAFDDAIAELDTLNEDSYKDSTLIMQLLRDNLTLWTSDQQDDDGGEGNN
method: Fluorescence anisotropy (FA): 14-3-3γ titration to fluorescein-ERRγ phosphopeptide with 100 μM compound
Assay type: binding
conditions: KD DMSO control / apparent KD with 100 μM compound, 24 h
measure name: stabilization factor SF100, Replicate 2 (Table S2)

>>> value("CN(C)CCSSCCN(C)C(=O)c1cccc(F)c1 [compound 1, reference compound]")
3.7
>>> value("CN(C)CCSSCCN(C)S(=O)(=O)c1ccc(C=O)cc1")
11.4
>>> value("CN(C)CCSSCCN(C)C(=O)c1ccc(C=O)cc1")
8.6
>>> value("CN(C)CCSSCCN(C)C(=O)c1cc(Br)cc(C=O)c1")
34.1
>>> value("CN(C)CCSSCCN(C)C(=O)c1ccc(C=O)c(Br)c1")
14.3

---

Entries and their measured stabilization factor SF100, Replicate 1 (Table S2) follow.
target or test system: 14-3-3γ/ERRγ complex (Homo sapiens, UniProt P61981+P62508)
Construct: made in house; host or cells: E. coli NiCo21 (DE3)
method: Fluorescence anisotropy (FA): 14-3-3γ titration to fluorescein-ERRγ phosphopeptide with 100 μM compound
Type: binding
conditions: KD DMSO control / apparent KD with 100 μM compound, 24 h
measure name: stabilization factor SF100, Replicate 1 (Table S2)

>>> value("CN(C)CCSSCCN(C)C(=O)c1cc(Br)cc(C=O)c1 [compound 10]")
37.6
>>> value("CN(C)CCSSCCN(C)C(=O)c1ccc(C=O)c(Br)c1 [compound 6]")
22.3
>>> value("CN(C)CCNC(=O)c1ccc(C=O)c(F)c1 [compound 3]")
1.0
>>> value("CN(C)CCSSCCN(C)C(=O)c1ccc(F)c(C=O)c1 [compound 9]")
8.5
>>> value("CN(C)CCSSCCN(C)C(=O)c1cccc(C=O)c1 [compound 8]")
25.5
>>> value("CN(C)CCSSCCN(C)C(=O)c1cccc(F)c1 [compound 1, reference compound]")
5.3
>>> value("CN(C)CCSSCCN(C)S(=O)(=O)c1ccc(C=O)cc1 [compound 7]")
13.4
>>> value("CN(C)CCSSCCN(C)C(=O)c1ccc(C=O)cc1 [compound 4]")
13.0
>>> value("CN(C)CCSSCCN(C)C(=O)c1ccc(C=O)c(F)c1 [compound 5]")
27.0

---

Entries and their measured stabilization factor SF100, Replicate 2 (Table S2) follow.
target or test system: 14-3-3γ/ERRγ complex (Homo sapiens, UniProt P61981+P62508)
Construct: made in house; host or cells: E. coli NiCo21 (DE3)
method: Fluorescence anisotropy (FA): 14-3-3γ titration to fluorescein-ERRγ phosphopeptide with 100 μM compound
Format: binding
conditions: KD DMSO control / apparent KD with 100 μM compound, 24 h
measure name: stabilization factor SF100, Replicate 2 (Table S2)

>>> value("CN(C)CCSSCCN(C)C(=O)c1cccc(C=O)c1 [compound 8]")
17.3
>>> value("CN(C)CCSSCCN(C)C(=O)c1ccc(C=O)c(F)c1 [compound 5]")
17.8
>>> value("CN(C)CCNC(=O)c1ccc(C=O)c(F)c1 [compound 3]")
1.0
>>> value("CN(C)CCSSCCN(C)C(=O)c1ccc(F)c(C=O)c1 [compound 9]")
5.4

---

target or test system: 14-3-3γ/ERRγ complex (Homo sapiens, UniProt P61981+P62508)
Construct: made in house; host or cells: E. coli NiCo21 (DE3)
method: Fluorescence anisotropy (FA): 14-3-3γ titration to fluorescein-ERRγ phosphopeptide with 100 μM compound
Type: binding
conditions: KD DMSO control / apparent KD with 100 μM compound, 24 h
Procedure: The stabilization of the ERRγ/14-3-3γ complex by the molecular locks was assessed using a fluorescence anisotropy (FA) assay where 14-3-3γ was titrated into a fluorescently labeled ERRγ phosphopeptide in the absence or presence of a 100 μM molecular lock (Figure 2a,b); this compound concentration was selected based on a FA compound titration assay (Figure S1). Experimental Section Biophysical Assays 14-3-3γ protein expression (FA, TSA, MS assays) […]
measure name: stabilization factor SF100, Replicate 3 (Table S2)

>>> value("CN(C)CCSSCCN(C)C(=O)c1ccc(F)c(C=O)c1")
7.9
>>> value("CN(C)CCSSCCN(C)C(=O)c1ccc(C=O)c(F)c1")
16.5
>>> value("CN(C)CCSSCCN(C)C(=O)c1cc(Br)cc(C=O)c1")
38.8
>>> value("CN(C)CCSSCCN(C)C(=O)c1cccc(C=O)c1")
19.0
>>> value("CN(C)CCSSCCN(C)S(=O)(=O)c1ccc(C=O)cc1")
8.6
>>> value("CN(C)CCSSCCN(C)C(=O)c1ccc(C=O)c(Br)c1")
16.9
>>> value("CN(C)CCSSCCN(C)C(=O)c1ccc(C=O)cc1")
9.0
>>> value("CN(C)CCSSCCN(C)C(=O)c1cccc(F)c1 [compound 1, reference compound]")
4.6
>>> value("CN(C)CCNC(=O)c1ccc(C=O)c(F)c1")
0.9
